# system.under.test: human recombinant sGC enzyme (Homo sapiens (Human), UniProt Q02108+Q02153)
# assay.comment: Size Exclusion Chromatography (SEC) competition binding assay using [3H] Ex-77B as the radioligand
# reported.conditions: [3H] Ex-77B radioligand, 24 hours at 37° C.
pKi: −log10 of the molar value.
property.name: pKi

Completed entries (count: 6):
# molecule, property.name, measured.number
measured = [
    ("CC(C)(Cc1coc(C2(C)C(=O)Nc3nc(-c4nn(Cc5cccc(F)c5F)c5cc(Cl)ccc45)nc(N)c32)n1)C(=O)O (stereo not shown) [Example 180A]", "pKi", 10.51),
    ("CC(C)(Cc1csc([C@]2(C)C(=O)Nc3nc(-c4nn(Cc5cccc(F)c5)c5ncccc45)nc(N)c32)n1)C(=O)O [Example 149A]", "pKi", 9.78),
    ("C[C@@]1(c2ccc(CCC(=O)O)cc2)C(=O)Nc2nc(-c3nn(CC4CCCC4)c4cc(Cl)ccc34)nc(N)c21 [Example 160B]", "pKi", 10.21),
    ("CCCCn1nc(-c2nc(N)c3c(n2)NC(=O)C3(C)c2nc(CC(C)(C)C(=O)O)cs2)c2cccnc21 (stereo not shown) [Example 86A]", "pKi", 9.49),
    ("CC1(c2ccc(C(=O)O)cn2)C(=O)Nc2nc(-c3nn(Cc4ccccc4F)c4cc(Cl)ccc34)nc(N)c21 (stereo not shown) [Example 254A]", "pKi", 9.70),
    ("CC(C)(Cc1coc(C2(C)C(=O)Nc3nc(-c4nn(Cc5c(F)ccc(F)c5F)c5cc(Cl)ccc45)nc(N)c32)n1)C(=O)O (stereo not shown) [Example 189A]", "pKi", 10.31),
]

[1] CC(C)(CCc1coc(C2(C)C(=O)Nc3nc(-c4nn(Cc5ccccc5F)c5ncccc45)nc(N)c32)n1)C(=O)O (stereo not shown) [Example 206B]
[2] COCCn1nc(-c2nc(N)c3c(n2)NC(=O)C3(C)c2cccc(CC(C)(C)C(=O)O)c2)c2ccc(Cl)cc21 (stereo not shown) [Example 39B]
[3] CC(C)(CCc1coc(C2(C)C(=O)Nc3nc(-c4nn(Cc5ccccc5F)c5ccccc45)nc(N)c32)n1)C(=O)O (stereo not shown) [Example 220B]
[4] C[C@@]1(c2ccc(CCC(=O)O)cc2)C(=O)Nc2nc(-c3nn(CC4CCC(F)(F)CC4)c4cc(Cl)ccc34)nc(N)c21 [Example 58B]
Which order do these items take when sorted by rising pKi? List them. Output the labels ranked as instructed. 2, 1, 4, 3

[1] CC1(c2nc(C[C@H](N)C(=O)O)cs2)C(=O)Nc2nc(-c3nn(Cc4ccccc4F)c4cc(Cl)ccc34)nc(N)c21 (stereo partly shown) [Example 234B]
[2] CC1(c2cc(-c3nn[nH]n3)ccn2)C(=O)Nc2nc(-c3nn(Cc4ccccc4F)c4cc(Cl)ccc34)nc(N)c21 (stereo not shown) [Example 243A]
Select the item with the higher value of pKi from the options 1 and 2 listed. Response format: the label of the selected entry. 2
(2: 10.21, 1: 9.02)
